target: His-EBNA1 (DNA binding domain of EBNA1, amino acids 459-607) (Epstein-Barr virus, UniProt P03211)
Sequence (P03211 459-607): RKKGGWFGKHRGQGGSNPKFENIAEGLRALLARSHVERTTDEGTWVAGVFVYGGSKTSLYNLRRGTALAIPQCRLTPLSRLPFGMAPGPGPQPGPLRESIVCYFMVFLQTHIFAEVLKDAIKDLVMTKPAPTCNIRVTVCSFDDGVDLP
assay.metric: IC50

INSERT INTO assay_data (compound, assay_value) VALUES
  ('O=C(O)c1cccc(C#Cc2cc3ccn(CC4CCOCC4)c3cc2F)c1-c1ccc2cc[nH]c2c1 [Entry 35]', '1 to 10 µM'),
  ('CCN1CCN(Cc2ccc(C#Cc3cccc(C(=O)O)c3-c3ccc4cc[nH]c4c3)cc2)CC1 [Entry 146]', '10 to 100 µM'),
  ('O=C(O)c1cccc(C#Cc2cn(CCN3CCOCC3)c3ncccc23)c1-c1ccc2cc[nH]c2c1 [Entry 10]', '10 to 100 µM'),
  ('CS(=O)(=O)N1CCC(Cc2ccc(C#Cc3cccc(C(=O)O)c3-c3ccc4cc[nH]c4c3)cc2)CC1 [Entry 52]', '1 to 10 µM'),
  ('CS(=O)(=O)N1CCC(CN2CCc3cc(C#Cc4cccc(C(=O)O)c4-c4ccc5cc[nH]c5c4)ccc3C2)CC1 [Entry 59]', '10 to 100 µM'),
  ('CS(=O)(=O)N1CCC(CN2CCc3cc(C#Cc4cccc(C(=O)O)c4-c4ccc5cc[nH]c5c4)ccc3C2)C1 (centres unmarked) [Entry 61]', '10 to 100 µM'),
  ('Nc1ncc(-c2ccc(C#Cc3cccc(C(=O)O)c3-c3ccc4cc[nH]c4c3)cc2)o1 [Entry 130]', '1 to 10 µM'),
  ('N#Cc1cc(C#Cc2cccc(C(=O)O)c2-c2ccc3cc[nH]c3c2)ccc1OC1CCOCC1 [Entry 103]', '1 to 10 µM');

###

Parameter pIC50, tested on His-EBNA1 (DNA binding domain of EBNA1, amino acids 459-607) (Epstein-Barr virus), listed per item.
pIC50: −log10 of the molar value.
assay.metric: pIC50

INSERT INTO measurements (compound, assay_value) VALUES
  ('O=C(O)c1cccc(C#Cc2ccc(OC3CCS(=O)(=O)CC3)cc2)c1-c1ccc2[nH]ccc2c1', '5.00 to 6.00'),
  ('COc1ccc(C#Cc2cccc(C(=O)O)c2-c2cnc3[nH]ccc3c2)cc1', '4.00 to 5.00'),
  ('COC1CCN(C(=O)c2ccc(C#Cc3cccc(C(=O)O)c3-c3ccc4cc[nH]c4c3)cc2)CC1', '5.00 to 6.00'),
  ('Cn1ccc2ccc(-c3c(C#Cc4ccccc4)cccc3C(=O)O)nc21', '4.00 to 5.00'),
  ('COC1CCN(Cc2ccc(C#Cc3cccc(C(=O)O)c3-c3ccc4cc[nH]c4c3)cc2)C1 (stereo not shown)', '4.00 to 5.00'),
  ('CCOC(=O)N1CCN(Cc2cccc(C#Cc3cccc(C(=O)O)c3-c3ccc4cc[nH]c4c3)c2)CC1', '4.00 to 5.00'),
  ('O=C(O)c1cccc(C#Cc2ccccc2)c1-c1ccc2scnc2c1', '4.00 to 5.00'),
  ('O=C(O)c1cccc(C#Cc2ccc(COC3CCS(=O)(=O)CC3)cc2F)c1-c1ccc2cc[nH]c2c1', '4.00 to 5.00'),
  ('CC(C)(O)c1ccc(C#Cc2cccc(C(=O)O)c2-c2ccc3cc[nH]c3c2)cc1', '5.00 to 6.00'),
  ('CS(=O)(=O)N1CCC(N2CCc3ccc(C#Cc4cccc(C(=O)O)c4-c4ccc5cc[nH]c5c4)cc3C2)C1 (stereo not shown)', '4.00 to 5.00'),
  ('O=C(O)c1cccc(C#Cc2ccc(COc3ccccc3C(F)(F)F)cc2)c1-c1ccc2cc[nH]c2c1', '5.00 to 6.00'),
  ('O=C(O)c1cccc(C#Cc2ccc3ccn(CC4CCS(=O)(=O)CC4)c3c2F)c1-c1ccc2cc[nH]c2c1', '5.00 to 6.00'),
  ('CN(C)S(=O)(=O)NC(=O)c1cccc(C#Cc2ccc(COC3CCOCC3)cc2)c1-c1ccc2cc[nH]c2c1', '5.00 to 6.00'),
  ('CS(=O)(=O)N1CCN(Cc2ccc(C#Cc3cccc(C(=O)O)c3-c3ccc4cn[nH]c4c3)cc2)CC1', '4.00 to 5.00'),
  ('Nc1nnc(-c2ccc(C#Cc3cccc(C(=O)O)c3-c3ccc4cc[nH]c4c3)cc2)s1', '5.00 to 6.00'),
  ('O=C(O)c1cccc(C#Cc2ccccc2)c1-c1ccc2cccnc2n1', '4.00 to 5.00');

###

Listing: pIC50 of selected compounds
molecular target: His-EBNA1 (DNA binding domain of EBNA1, amino acids 459-607) (Epstein-Barr virus, UniProt P03211)
pIC50: −log10 of the molar value.
assay.metric: pIC50

INSERT INTO assay_data (compound, assay_metric, assay_value) VALUES
  ('CS(=O)(=O)N1CCC(Cn2ccc3cc(C#Cc4cccc(C(=O)O)c4-c4ccc5cc[nH]c5c4)cnc32)CC1 [Entry 20]', 'pIC50', '5.00 to 6.00'),
  ('NS(=O)(=O)N1CCN(Cc2ccc(C#Cc3cccc(C(=O)O)c3-c3ccc4cc[nH]c4c3)cc2)CC1 [Entry 205]', 'pIC50', '5.00 to 6.00'),
  ('NS(=O)(=O)c1cccc(C#Cc2cccc(C(=O)O)c2-c2ccc3cc[nH]c3c2)c1 [Entry 122]', 'pIC50', '4.00 to 5.00'),
  ('CS(=O)(=O)N1CCN(Cc2ccc(C#Cc3cccc(C(=O)O)c3-c3cnc4[nH]ccc4c3)cc2)CC1 [Entry 180]', 'pIC50', '5.00 to 6.00'),
  ('Nc1ccc(C#Cc2cccc(C(=O)O)c2-c2ccc3cc[nH]c3c2)cc1S(N)(=O)=O [Entry 123]', 'pIC50', '4.00 to 5.00'),
  ('O=C(O)c1cccc(C#Cc2ccc3[nH]c(CN4CCS(=O)(=O)CC4)nc(=O)c3c2)c1-c1ccc2cc[nH]c2c1 [Entry 134]', 'pIC50', '5.00 to 6.00'),
  ('CS(=O)(=O)N1CCN(Cc2ccc(C#Cc3cccc(C(=O)O)c3-c3ccc4cc[nH]c4c3)cc2)CC1 [Entry 161]', 'pIC50', '4.00 to 5.00'),
  ('CS(=O)(=O)N1CCC(CN2CCc3ccc(C#Cc4cccc(C(=O)O)c4-c4ccc5cc[nH]c5c4)cc3C2)C1 (stereo not drawn) [Entry 62]', 'pIC50', '4.00 to 5.00'),
  ('CS(=O)(=O)N1CC(N2CCc3cc(C#Cc4cccc(C(=O)O)c4-c4ccc5cc[nH]c5c4)ccc3C2)C1 [Entry 60]', 'pIC50', '4.00 to 5.00'),
  ('O=C(O)c1cccc(C#Cc2ccc(CN3CCN(c4cnccn4)CC3)cc2)c1-c1ccc2cc[nH]c2c1 [Entry 172]', 'pIC50', '5.00 to 6.00'),
  ('Nc1cc(-c2cccc(C#Cc3cccc(C(=O)O)c3-c3ccc4cc[nH]c4c3)c2)n[nH]1 [Entry 106]', 'pIC50', '5.00 to 6.00'),
  ('O=C(O)c1cccc(C#Cc2ccccc2)c1-c1ccc2cc[nH]c2c1F [Entry 109]', 'pIC50', '4.00 to 5.00'),
  ('CS(=O)(=O)N1CC(CN2CCc3ccc(C#Cc4cccc(C(=O)O)c4-c4ccc5cc[nH]c5c4)cc3C2)C1 [Entry 65]', 'pIC50', '4.00 to 5.00'),
  ('C(#Cc1cccc(-c2nnn[nH]2)c1-c1ccc2cc[nH]c2c1)c1ccc(COC2CCOCC2)cc1 [Entry 196]', 'pIC50', '5.00 to 6.00'),
  ('O=C1CCC(NC(=O)c2ccc(C#Cc3cccc(C(=O)O)c3-c3ccc4cc[nH]c4c3)cc2)CC1 [Entry 199]', 'pIC50', '> 6.00');

###

Parameter IC50, tested on His-EBNA1 (DNA binding domain of EBNA1, amino acids 459-607) (Epstein-Barr virus), listed per item.
assay.metric: IC50

INSERT INTO results (molecule_smiles, assay_value) VALUES
  ('O=C(O)c1cccc(C#Cc2ccc3ccn(CCCN4CCOCC4)c3c2)c1-c1ccc2cc[nH]c2c1', '10 to 100 µM'),
  ('CN1CCN(Cc2ccc(C#Cc3cccc(C(=O)O)c3-c3ccc4[nH]ccc4c3)cc2)CC1', '1 to 10 µM'),
  ('CC(C)S(=O)(=O)N1CCC(Cc2ccc(C#Cc3cccc(C(=O)O)c3-c3ccc4cc[nH]c4c3)cc2)CC1', '1 to 10 µM'),
  ('O=C(O)c1cccc(C#Cc2ccc(CN3CCC(CO)CC3)cc2)c1-c1ccc2cc[nH]c2c1', '10 to 100 µM'),
  ('O=C(O)c1cccc(C#Cc2ccc(CN3CCC(F)(F)CC3)cc2)c1-c1ccc2cc[nH]c2c1', '1 to 10 µM'),
  ('CS(=O)(=O)N1CC(CN2Cc3ccc(C#Cc4cccc(C(=O)O)c4-c4ccc5cc[nH]c5c4)cc3C2)C1', '10 to 100 µM'),
  ('O=C(O)c1cccc(C#Cc2ccc3c(CN4CCOCC4)c[nH]c3c2F)c1-c1ccc2cc[nH]c2c1', '1 to 10 µM');
